Catalogue of OD450 readings, one per entry.
# STUDY TARGET: T1, biotin-peptide MTPTDFTSPI (human, also: prints MTPTDFTSP, without I10)
# T1 peptide: Biotin-MTPTDFTSPI
# TEST SUMMARY: ELISA biotin-peptide; scFv 10 ug/mL; repI
# Procedure: The peptides were synthesized naked or with a N-terminal Biotin modification with a purity of >98%. All four scFvs were verified by ELISA that can be detected with anti-His antibodies. ELISA was performed for scFv-peptide binding validation. Briefly, naked peptides were coated (50 μg/mL) in 0.58M carbonate-bicarbonate buffer pH9.5, 100 μL/well, 4° C. […]
Where no end group is shown, it is not given here. The star is where a group is joined. Biotin = O=C1N[C@H]2[C@H](CS[C@H]2CCCCC(=O)*)N1
Express your answer in OD, writing the number without its unit.

Solved entries (count: 2):
Comparative antibody 2 (Comp-2) scFv, 243LO326 (VH SEQ ID NO: 51 and VL SEQ ID NO: 52 of WO 2022/195028 A2), His-tagged (scFv) scFv: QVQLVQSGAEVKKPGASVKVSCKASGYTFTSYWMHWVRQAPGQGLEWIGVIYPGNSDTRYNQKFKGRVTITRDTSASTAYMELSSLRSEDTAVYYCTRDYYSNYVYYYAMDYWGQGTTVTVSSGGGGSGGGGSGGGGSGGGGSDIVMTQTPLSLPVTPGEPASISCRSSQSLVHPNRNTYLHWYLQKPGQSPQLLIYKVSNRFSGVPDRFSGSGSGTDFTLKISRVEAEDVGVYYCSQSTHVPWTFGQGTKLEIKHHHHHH    0.08
Comparative antibody 3 (Comp-3) scFv, SR_92R (Somovilla-Crespo et al. 2018), His-tagged (scFv) scFv: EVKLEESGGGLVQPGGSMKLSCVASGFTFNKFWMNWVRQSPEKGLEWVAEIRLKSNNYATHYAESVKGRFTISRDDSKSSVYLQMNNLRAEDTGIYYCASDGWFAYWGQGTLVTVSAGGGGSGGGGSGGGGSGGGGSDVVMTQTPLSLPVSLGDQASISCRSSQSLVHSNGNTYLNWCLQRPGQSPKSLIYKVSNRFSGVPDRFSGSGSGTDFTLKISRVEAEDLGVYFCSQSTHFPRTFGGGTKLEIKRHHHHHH    0.1

Okay, next one:
## Task Answer with reported OD450 of Comparative antibody 1 (Comp-1) scFv, SEQ ID NO: 10 from WO2023/037125 A1, His-tagged (scFv) scFv: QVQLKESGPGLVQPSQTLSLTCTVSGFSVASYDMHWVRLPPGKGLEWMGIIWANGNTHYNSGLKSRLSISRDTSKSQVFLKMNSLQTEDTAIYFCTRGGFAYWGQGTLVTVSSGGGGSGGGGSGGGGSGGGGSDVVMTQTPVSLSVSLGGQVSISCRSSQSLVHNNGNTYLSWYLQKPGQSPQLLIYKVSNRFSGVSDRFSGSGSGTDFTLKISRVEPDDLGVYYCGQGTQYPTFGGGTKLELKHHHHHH
## Result 0.08
